// reported TGI for each item listed
Tested on: MDA-MB-231 breast
Test: NCI tumour cell line growth inhibition, 48 h
Use µM as the unit, but write only the number.

Guide cases for TGI, answers given:
molecule	unitDescriptor	resultNumber
CCCCCCCCCCC(C(O)c1ccccc1)N1CCCCC1 (stereo unspecified)	µM	3.69
Cc1cc2nc(N3C(=O)/C(=C/c4ccccc4S)N=C3c3ccccc3)sc2cc1C	µM	86

Now consider the entry below.
input: State the recorded TGI for this entry: `Nc1ccc(S(=O)(=O)Nc2ccc(Nc3c4ccccc4nc4ccccc34)cc2)cc1`
output: 22.1

---

Test system: OVCAR-3 ovarian
Test: NCI tumour cell line growth inhibition, 48 h; in the data active means GI50 below about 0.43 µM; inactive means the rest
Select the correct class. Options are Yes (active), No (inactive) and nothing else.

input: Just curious, what result did `COc1ccc(-n2cc(-c3cc(OC)c(OC)c(OC)c3)nc2SCc2ccccc2)cc1OC` get here?
output: No

---

System: CAKI-1 renal
Test: NCI tumour cell line growth inhibition, 48 h; in the data active = GI50 below about 0.43 µM; inactive = the rest
Select the correct class. Options are active, inactive and nothing else.

Examples from the recorded data:
compound	groupLabel
Oc1ccccc1C=Nc1nc(SCc2ccccc2)nc2[nH]ncc12	inactive
COc1ccc(-n2cc(-c3cc(OC)c(OC)c(OC)c3)nc2SCc2ccccc2)cc1OC	inactive
FC(F)(F)c1ccc(C#Cc2ccccc2C#Cc2ccccc2)cc1	inactive
CC[C@@]1(OC(=O)CN)C(=O)OCc2c1cc1n(c2=O)Cc2cc3c(N)cccc3nc2-1	active
N#CC1=C(N)Oc2c(sc3c(Br)cccc23)C1c1ccc(Br)cc1 (configuration not stated)	inactive

input: Just curious, what result did COC(=O)CCC1CCC(c2cc(F)ccc2F)(S(=O)(=O)c2ccc(Cl)cc2)CC1 (configuration not stated) get here?
output: inactive

input: Just curious, what result did `COc1cccc2c1C(=O)c1c(O)c3c(c(O)c1C2=O)C[C@@](O)(C(=O)CO)C[C@@H]3O[C@H]1C[C@H](N)[C@@H](O)[C@H](C)O1` get here?
output: inactive

---

System: UO-31 renal
Assay: NCI tumour cell line growth inhibition, 48 h
// reported TGI for each item listed
Use µM as the unit, but write only the number.

Guide cases for TGI, answers given:
compound	TGI, µM
Nc1ccc(S(=O)(=O)Nc2ccc(Nc3c4ccccc4nc4ccccc34)cc2)cc1	4.24
O=C(O)C1C(C(=O)O)C23CC2(C(=O)O)C2(C(=O)O)CCC3=C3CCCC312 (centres undefined)	33.2

input: State the recorded TGI for this entry: `CN(C)CCNC(=O)c1cccc2[nH]c(-c3cccnc3)nc12`
output: 39.5

input: State the recorded TGI for this entry: `N#Cc1ccc(C(=O)/C=C/c2ccc(O)c(O)c2)cc1`
output: 25.1

input: State the recorded TGI for this entry: `CCOC(=O)/C(=C\c1ccc(C#N)cc1)C(C)=O`
output: 28

input: State the recorded TGI for this entry: `S=c1ssc(Oc2ccccc2)c1Cl`
output: 58.8

input: State the recorded TGI for this entry: `CCOC(=O)/C(=C\c1cccs1)P(=O)(OCC)OCC`
output: 36.1

---

Tested on: OVCAR-8 ovarian
Experiment: NCI tumour cell line growth inhibition, 48 h
Label Fulfilled when TGI >= 30 µM; otherwise Not fulfilled.

Examples from the recorded data:
compound	groupLabel
CC1(C)C/C(=N/O)c2c(nc3ccc4ccccc4c3c2-c2ccc(Cl)cc2)C1	Not fulfilled
COc1ccc(S(=O)(=O)Nc2cc(/C=C\c3cc(OC)c(OC)c(OC)c3)ccc2OC)cc1	Fulfilled
Cc1[nH]c(=O)n2c(C)nnc2c1C(=O)Nc1cc(Cl)cc(Cl)c1	Fulfilled
CC(C)C(Sc1nc(-c2ccccc2)c(-c2ccccc2)[nH]1)C(=O)NN (centres undefined)	Fulfilled
O=C(O)C1C(C(=O)O)C23CC2(C(=O)O)C2(C(=O)O)CCC3=C3CCCC312 (centres undefined)	Fulfilled

input: Check if TGI >= 30 µM (inclusive). Item: `Cc1cc(NS(=O)(=O)c2ccc(NC(=O)c3ccc(Cl)c4c(Nc5ccc(S(=O)(=O)N=C(N)N)cc5)c5ccccc5nc34)cc2)no1`
output: Fulfilled

input: Check if TGI >= 30 µM (inclusive). Item: CCCCCCCCCCCCOC1C(C(COC2OC(C3COC(C)(C)O3)C3OC(C)(C)OC23)NC(=O)NS(=O)(=O)c2ccccc2)OC2OC(C)(C)OC21 (centres undefined)
output: Not fulfilled
